Source of measurements: BindingDB's records for doi:10.1016/j.bmcl.2006.01.032

# measurementProtocol: Inhibition of HCV RNA replication in Huh5-2 cells after 48 hrs
Entries and their pEC50
Units for pEC50: none; it is -log10 of a concentration expressed in mol/L.

1. CN(C)C(=O)c1ccc(C(Oc2ccc(-c3nc4cc(C(=O)O)ccc4n3C3CCCCC3)c(F)c2)c2ccc(C(=O)N(C)C)cc2)cc1 : 5.92

Quick one: pEC50 of `O=C(O)c1ccc2c(c1)nc(-c1ccc(OC(c3ccccc3)c3ccccc3)cc1F)n2C1CCCCC1` ? 5.72

Now consider `Cc1ccc(C(Oc2ccc(-c3nc4cc(C(=O)O)ccc4n3C3CCCCC3)cc2)c2ccc(C)cc2)cc1` . 5.43

Now consider `O=C(O)c1ccc2c(c1)nc(-c1ccc(OC(c3ccc(F)cc3)c3ccc(F)cc3)cc1)n2C1CCCCC1` . 5.66

Now consider O=C(O)c1ccc2c(c1)nc(-c1ccc(OC(c3ccccc3)c3cccnc3)cc1F)n2C1CCCCC1 (stereo not given) . 5.96

Now consider `O=C(O)c1ccc2c(c1)nc(-c1ccc(OC(c3ccc(F)cc3)c3ccc(F)cc3)cc1F)n2C1CCCCC1` . 5.80

Now consider `O=C(O)c1ccc2c(c1)nc(-c1ccc(OC(c3cccc(F)c3)c3cccc(F)c3)cc1)n2C1CCCCC1` . 5.55

Now consider `O=C(O)c1ccc2c(c1)nc(-c1ccc(OC(c3ccccc3)c3ccccc3)cc1)n2C1CCCCC1` . 5.59

Now consider `O=C(O)c1ccc2c(c1)nc(-c1ccc(OC(c3ccc(Cl)cc3)c3ccc(Cl)cc3)cc1)n2C1CCCCC1` . 5.44

Now consider `O=C(O)c1ccc2c(c1)nc(-c1ccc(OC(c3cccnc3)c3cccnc3)cc1F)n2C1CCCCC1` . 5.59
